test: in vitro; settings: human, kb 3-1 cells

# compound, readoutUnit, viability at 96 h, 1 µM
measured = [
    ("CCOC(=O)/C=C/c1cccc(/C(=C/CN2CCCC2)c2ccc(C)cc2)n1 [Compound (B)]", "%", 58),
]

###

test: In vitro cytotoxicity of potentiating agents in human KB epidermoid carcinoma cells, drug resistant KB V-1, MTT; settings: human, kb v-1 cells

# chemicalStructure, viability at 96 h, 1 µM
rows = [
    ("CCOC(=O)/C=C/c1cccc(/C(=C/CN2CCCC2)c2ccc(C)cc2)n1", "36%"),
]

###

experiment: In vitro cytotoxicity of potentiating agents in Chinese hamster ovary cells, multidrug resistant C5S32 line, MTT; type: cell-based; settings: hamster, c5s32 cho cells, C5S32 drug resistant, potentiating agent 10 μM, no Act D, untreated = 1.00, read-out: Normalized absorbance (cell survival), potentiating agent alone, fraction of untreated culture
measuredQuantity: viability at 96 h, 10 µM (%)

# chemicalStructure, quantitativeResult
measured = [
    ("CCOC(=O)/C=C/c1cccc(/C(=C/CN2CCCC2)c2ccc(C)cc2)n1", 52),
]
